System: U2OS
Test: Multiplex assay against U2OS
Assay type: toxicity, cell-based
Conditions: human, 24 h, 1 µM, compound concentration 1 uM, replicate 1
Property label: Population Tubulin-Different-Phenotype (%)
Reply numerically in %, unit not repeated.

Which value of Population Tubulin-Different-Phenotype (%) has been reported for Cc1sc2c(c1C)C(c1ccc(Cl)cc1)=N[C@@H](CC(=O)NCCCCCCCCNC(=O)COc1cccc3c1C(=O)N(C1CCC(=O)NC1=O)C3=O)c1nnc(C)n1-2 (stereo partly specified) in the records? 5

Also check CC(C)COc1ccc(CNC(=O)N(Cc2ccc(F)cc2)C2CCN(C)CC2)cc1 6

Also check O=C(CCCc1ccccc1)Nc1nc2ccccc2c(=O)s1 2

Also check CCCCC1=NC2(CCCC2)C(=O)N1Cc1ccc(-c2ccccc2-c2nnn[nH]2)cc1 3

Also check O=C1[C@H](Cc2ccc(O)cc2)N2C(=O)CCN(C(=O)NCc3ccccc3)[C@H]2CN1Cc1cccc2ccccc12 2

Also check CN1CCN(c2cc(-c3ccccc3)nc(N)n2)CC1 4

---

Exercise: state measured Population Apoptotic (%) for each of the molecules provided.
System: Fibroblast
Assay: Multiplex assay against human fibroblast
Format: toxicity, cell-based
Details: 24 h, 1 µM, compound concentration 1 uM, replicate 1
Reply numerically in %, unit not repeated.

Which value of Population Apoptotic (%) has been reported for CC(=O)Nc1cccc2c1c(Sc1ccc(Cl)cc1)c(C)n2CC(=O)O in the records? 53

Also check Cc1c(CC(=O)O)c2cccnc2n1Cc1ccc(S(C)(=O)=O)cc1C(F)(F)F 55

Also check CC[C@@H](C)Nc1nc(C)nc2c(-c3ccc(OC)nc3C)c(C)nn12 52

Also check CCc1cc2cc(NS(=O)(=O)c3ccc(C#N)cc3)ccc2n(CC)c1=O 53

Also check Br.CS(=O)(=O)Nc1c(O)ccc2c1CCCC2C1=NCCN1 (stereo not given) 56

---

Test system: Fibroblast
Test: Multiplex assay against human fibroblast
Type: toxicity, cell-based
Conditions: 48 h, 10 µM, compound concentration 10 uM, replicate 1
Record 1.0 whenever Population Tubulin-Different-Phenotype (%) is at 50% or higher; record 0.0 when lower.

hey, is Population Tubulin-Different-Phenotype (%) for this one >= 50%? CCCOc1ccc2[nH]cc(C3=CCNCC3)c2n1.Cl 0.0

Also check CC(C)c1noc(N2CCC(COc3ccc(-c4ccc(S(C)(=O)=O)cc4)nc3)CC2)n1 [GSK-1292263] 0.0

Also check N#Cc1c(Oc2cccc(OS(=O)(=O)CCCC(F)(F)F)c2)cccc1C(F)(F)F 0.0

Also check CC(C)COc1ccc(CNC(=O)N(Cc2ccc(F)cc2)C2CCN(C)CC2)cc1 [PIMAVANSERIN] 1.0

Also check CC[C@@H](C)Nc1nc(C)nc2c(-c3ccc(OC)nc3C)c(C)nn12 [PEXACERFONT] 1.0

---

System: U2OS
Assay: Multiplex assay against U2OS
Format: toxicity, cell-based
Conditions: human, 12 h, 1 µM, compound concentration 1 uM, replicate 2
Property label: Population Normal (%)
Reply numerically in %, unit not repeated.

Which value of Population Normal (%) has been reported for O=C1[C@H](Cc2ccc(O)cc2)N2C(=O)CCN(C(=O)NCc3ccccc3)[C@H]2CN1Cc1cccc2ccccc12 in the records? 99

Also check Cc1noc(-c2ccc(-c3ccc(CC(=O)O)cc3)cc2)c1NC(=O)O[C@H](C)c1ccccc1Cl 99

Also check CC[C@@H](C)Nc1nc(C)nc2c(-c3ccc(OC)nc3C)c(C)nn12 99

Also check COc1cccc2c1c(NS(=O)(=O)c1ccc(Cl)s1)nn2Cc1cccc(CNC(=O)C(C)(C)O)c1 93

The origin of these recorded values is ChEMBL document CHEMBL5058577.
